src = ChEMBL document CHEMBL5608141

system: Colon cancer organoid; assay: Identification of compartment-specific drug sensitivities in O20 CRC organoid-stroma F20 CAF co-cultures. Organoid is transduced with Lucferase2-P2A-EGFP lentivirus, fibroblast with Renilla-dsRed lentivirus. Dual-Glo Luciferase assay is used to report viability data.; format: functional, Homo sapiens; design: dose or concentration left out as unconfirmed; conditions: Transduced with Lucferase2-P2A-EGFP lentivirus
For each entry below, report its Cell Viability value.
Number plus unit, in that order.

So for COCCc1ccc(-c2c(C)nc3c(N4CCOCC4)ccnn23)cn1 [JNJ-42396302] , the logged Cell Viability turned out to be 126.017%

So for COc1ccccc1C(=O)Nc1cc2c(cc1N1CCNCC1C)n(C)c(=O)n2C (configuration not stated) , the logged Cell Viability turned out to be 131.273%

So for "OCCn1cc(-c2ccc3c(c2)CCC3=NO)c(-c2ccncc2)n1" , the logged Cell Viability turned out to be 203.673%

So for "CC(C)(O)[C@H](F)CN1Cc2cc(NC(=O)c3cnn4cccnc34)c(N3CCOCC3)cc2C1=O" , the logged Cell Viability turned out to be 123.644%

So for "COc1cc(C(=O)N2CC[C@@H](O)[C@@H](N)C2)cc2nc(-c3cc4ccccc4n3CC3CC3)n(C)c12.Cl" , the logged Cell Viability turned out to be 99.5485%

So for N#CC1(c2ccccn2)CCN(Cc2cc(C(=O)O)c(=O)n3ccccc23)CC1 [MSD-M1PAM] , the logged Cell Viability turned out to be 53.4383%

So for "CC(C)C(=O)Nc1n[nH]c2cc(-c3cccc(NS(=O)(=O)C4CC4)c3)ccc12" , the logged Cell Viability turned out to be 85.5363%

So for OCCn1cc(-c2cnc3nnn(Cc4ccc5ncccc5c4)c3n2)cn1 [PF-04217903] , the logged Cell Viability turned out to be 122.103%

So for CC(C)(O)c1cncc(-c2nc3ccc(F)cc3n2C2CC2)c1 [MSD-CYP11B2] , the logged Cell Viability turned out to be 80.182%

So for "O=C(O)c1ccc(-c2coc3ncc(-c4ccccc4)cc23)cc1Cl" , the logged Cell Viability turned out to be 189.357%

So for Nc1nc(NCc2ccccc2)nc(-c2ccccc2CO)n1 [Ogerin] , the logged Cell Viability turned out to be 81.1547%

So for CC(=O)N1CCC(c2ccc(C(=O)NC3=NCCN3)cc2C(F)(F)F)CC1 [BI 0054] , the logged Cell Viability turned out to be 121.714%

So for CC(C)(C#Cc1ccc(NC(=O)COc2ccccc2C(=O)c2ccccc2)c(Cl)c1)C(=O)O [BI 2439] , the logged Cell Viability turned out to be 147.968%

So for O=C(Nc1nc2cccc(-c3ccc(CN4CCS(=O)(=O)CC4)cc3)n2n1)C1CC1 [FILGOTINIB] , the logged Cell Viability turned out to be 113.419%

So for "Cl.Cl.Cl.c1ccc(N2CCN(Cc3nc4ccccc4[nH]3)CC2)nc1" , the logged Cell Viability turned out to be 41.4322%

So for N#Cc1cnc(Nc2cc(NC[C@H]3CNCCO3)c(C(F)(F)F)cn2)cn1 [SRA-737] , the logged Cell Viability turned out to be 103.573%

So for O=C(NOC[C@H](O)CO)c1ccc(F)c(F)c1Nc1ccc(I)cc1F [MIRDAMETINIB] , the logged Cell Viability turned out to be 3.902%

So for COc1nc2ccc([C@@](O)(c3ccccc3)C3CCN(C(C)=O)CC3)cc2c(Cl)c1Cc1ccc(-n2cccn2)cc1 [JNJ-54119936] , the logged Cell Viability turned out to be 65.101%

So for CN(C)[C@H]1CN(C2CCc3cccc(F)c32)C[C@@H]1c1ccc(N2CCN(S(C)(=O)=O)CC2)cc1 (some centres not stated) , the logged Cell Viability turned out to be 31.9931%

So for CCNC(=O)c1cc2c(N3CCOCC3C)ccnc2[nH]1 (configuration not stated) , the logged Cell Viability turned out to be 144.452%

So for COc1cccc2c1c(O)c(C(=O)N(C)c1ccc(C(F)(F)F)cc1)c(=O)n2C [TASQUINIMOD] , the logged Cell Viability turned out to be 64.5374%

So for "Cc1sc2c(c1C)C(c1ccc(Cl)cc1)=N[C@H](CC(=O)OC(C)(C)C)c1nnc(C)n1-2" , the logged Cell Viability turned out to be 99.6993%

---

system: Colon cancer organoid; experiment: Identification of compartment-specific drug sensitivities in O06 CRC organoid-stroma F06 CAF co-cultures. Organoid is transduced with Lucferase2-P2A-EGFP lentivirus, fibroblast with Renilla-dsRed lentivirus. Dual-Glo Luciferase assay is used to report viability data.; type: functional, Homo sapiens; design: dose or concentration left out as unconfirmed; conditions: Transduced with Renilla-dsRed lentivirus
assay-readout: Cell Viability (%)
Write the answer as a number in %, unit excluded.

So for "COc1cc(OC)cc(-c2noc(N3CCN(C)C4(CCN(c5ccccc5)CC4)C3)n2)c1" , the logged Cell Viability turned out to be 115.277

So for "CNc1nc(Nc2cnn([C@H]3CCN(C4COC4)C[C@@H]3F)c2Cl)ncc1C(F)(F)F" , the logged Cell Viability turned out to be 87.0484

So for "N#CC1(c2ccccn2)CCN(Cc2cc(C(=O)N3CCCC3)c(=O)n3ccccc23)CC1" , the logged Cell Viability turned out to be 72.6928

So for CCn1c(-c2nc3cc(C(=O)N4CCCC(N)C4)ccc3n2C)cc2ccccc21.Cl (stereo not given) , the logged Cell Viability turned out to be 117.733

So for "Cc1cc(CN)cc(C)c1-c1ncn(C)c1-c1ccnc2cc(F)ccc12.Cl" , the logged Cell Viability turned out to be 123.721

So for "CCOCCn1cc(C(=O)Nc2ccc(-n3nc(-c4cccnc4)cc3C(F)(F)F)cn2)ccc1=O" , the logged Cell Viability turned out to be 88.003

So for "COCc1nc2cnc3cc(-c4c(C)noc4C)c(OC[C@H]4CCNC4)cc3c2n1[C@H](C)c1ccccc1" , the logged Cell Viability turned out to be 183.714

So for "COCCN1CCC(c2cc(CN(C)C(=O)c3cccc(Oc4ccccc4)c3)ccn2)CC1" , the logged Cell Viability turned out to be 131.922

So for "O=C(NOCC1CC1)c1ccc(F)c(F)c1Nc1ccc(I)cc1Cl" , the logged Cell Viability turned out to be 73.8424

So for "CC(C)Oc1ccc(-c2c[nH]cc2CN(C)CCO)cc1" , the logged Cell Viability turned out to be 114.959

So for "CN(C)C(=O)N1CC[C@H](NC2=Nc3cc(F)ccc3N(CC(F)F)c3ccc(Cl)cc32)C1" , the logged Cell Viability turned out to be 79.8107

So for "Cn1cc(CCn2cnc(-c3cnn(C)c3)c2-c2ccc(C#N)cc2)cn1" , the logged Cell Viability turned out to be 117.261

So for "CN(C(=O)c1cnn2cccnc12)c1cc2c(cc1N1CCOCC1)C(=O)N(C[C@@H](F)C(C)(C)O)C2" , the logged Cell Viability turned out to be 65.3185

So for "CCC(F)(F)c1cc(N2CCC(S(C)(=O)=O)CC2)nc2sc(C(N)=O)c(N)c12" , the logged Cell Viability turned out to be 92.3898

So for "Cn1c(C2(NC(=O)c3ccc4c(C5CCCC5)c(-c5ncc(Br)cn5)n(C)c4c3)CCC2)nc2ccc(/C=C/C(=O)O)cc21" , the logged Cell Viability turned out to be 131.89

---

tested on: Colon cancer organoid; experiment: Identification of compartment-specific drug sensitivities in O06 CRC organoid-stroma F06 CAF co-cultures. Organoid is transduced with Lucferase2-P2A-EGFP lentivirus, fibroblast with Renilla-dsRed lentivirus. Dual-Glo Luciferase assay is used to report viability data.; assay type: functional, Homo sapiens; design: dose or concentration left out as unconfirmed; conditions: Transduced with Renilla-dsRed lentivirus
For each entry below, report its Cell Viability value.
Write the answer as a number in %, unit excluded.

So for C[C@@H](Oc1cc(-n2cnc3ccc(CN4CCN(C)CC4)cc32)sc1C(N)=O)c1ccccc1C(F)(F)F [GSK-461364] , the logged Cell Viability turned out to be 127.3

So for FC(F)c1nc2ccccc2n1-c1nc(N2CCOCC2)nc(N2CCOCC2)n1 [ZSTK-474] , the logged Cell Viability turned out to be 101.088

So for O=C(NCc1ncc(C(F)(F)F)cc1Cl)c1ccc2c(c1)C1(CCS(=O)(=O)CC1)[C@@H](C1CC1)N2S(=O)(=O)c1ccc(F)cc1 [BAY-786] , the logged Cell Viability turned out to be 52.1511

So for O=C(NNS(=O)(=O)c1ccccc1)c1cc(-c2ccnnc2)ccc1F [WM-2474] , the logged Cell Viability turned out to be 93.3483

So for "Cl.Cn1cncc1[C@](O)(COc1ccc(C#N)cc1-c1ccc(OC(F)(F)F)cc1)c1ccc(C#N)cc1" , the logged Cell Viability turned out to be 149.066

So for Cn1cnc2c(F)c(Nc3ccc(Br)cc3Cl)c(C(=O)NOCCO)cc21 [SELUMETINIB] , the logged Cell Viability turned out to be 98.6384

So for "COc1cc(C#N)ccc1S(=O)(=O)Nc1ccc2c(c1)cc(C)c(=O)n2C" , the logged Cell Viability turned out to be 111.598

So for COc1ccc2c(c1)O[C@@H](c1ccc(OC)c(OC)c1)C[C@H]2NC(=O)C1(c2ccc3c(c2)OC(F)(F)O3)CC1 [A-1596586] , the logged Cell Viability turned out to be 117.187

So for O=C(NNS(=O)(=O)c1ccccc1F)c1cc(F)cc(-c2ccccn2)c1 [WM-1119] , the logged Cell Viability turned out to be 108.11

So for COc1nc2ccc([C@@](O)(c3ccccc3)C3CCN(C(C)=O)CC3)cc2c(Cl)c1Cc1ccc(-n2cccn2)cc1 [JNJ-54119936] , the logged Cell Viability turned out to be 121.742

So for Cn1c(C2(NC(=O)c3ccc(NCC4CCCCC4)nc3)CCC2)nc2ccc(/C=C/C(=O)O)cc21 [BI 7656] , the logged Cell Viability turned out to be 130.646

So for "O=C(O)CNC(=O)c1c(O)c2ccccc2n(Cc2ccccc2)c1=O" , the logged Cell Viability turned out to be 124.036

So for "Cc1ccc2nc(NCCN)c3ncc(C)n3c2c1.O=C(O)C(F)(F)F.O=C(O)C(F)(F)F" , the logged Cell Viability turned out to be 112.188
